Test system: Salmonella typhimurium TA1535
Assay: Ames test (reverse mutation test), TA1535
Type: cell-based
Conditions: with S9 mix; dose 62 μg/plate
Description: Ames Test (Reverse Mutation Test) Two plates per treatment were used.
valueKind: Number of revertant colonies TA1535
# answer = number (no unit)

1. Nc1cc(-c2cc(F)cc(OC(F)(F)F)c2)n(-c2cncc(F)c2)n1 [Metabolite 3]: 11
2. Nc1cc(-c2cc(F)cc(OC(F)(F)F)c2)n(-c2cncc(C(F)(F)F)c2)n1 [Metabolite 5]: 10
3. CC(C)(C)Oc1cc(F)cc(-c2cc(N)nn2C(F)(F)F)c1 [Metabolite 1]: 8

Here is the next item to consider.
Exercise: Recorded Number of revertant colonies TA1535 of CC(C)(C)Oc1cccc(-c2cc(N)nn2-c2ccccc2)c1 [Metabolite C] , please.
Key: 4
